Tested on: forearm of a human volunteer
Assay: Further human vasoconstriction testing, Method 2
Assay type: in vivo
Set-up: key: +: "positive" (pallor could be observed); -: "negative" (pallor could not be detected)
Details: 8 Hours, 0.05 mM
Measured Attribute: Vasoconstriction activity

Molecule	Measured Attribute	Observed
CCCCC(=O)O[C@]1(C(=O)CO)[C@@H](C)C[C@H]2[C@@H]3CCC4=CC(=O)C=C[C@]4(C)[C@@]3(F)[C@@H](O)C[C@@]21C [Betamethasone 17-valerate, reference compound]	Vasoconstriction activity	-
CCOC(=O)[C@@]1(OC(=O)C(Cl)Cl)[C@H](C)C[C@H]2[C@@H]3CCC4=CC(=O)C=C[C@]4(C)[C@@]3(F)[C@@H](O)C[C@@]21C	Vasoconstriction activity	-
COC(=O)[C@@]1(OC(=O)C(Cl)Cl)[C@H](C)C[C@H]2[C@@H]3CCC4=CC(=O)C=C[C@]4(C)[C@@]3(F)[C@@H](O)C[C@@]21C	Vasoconstriction activity	+
C[C@@H]1C[C@H]2[C@@H]3CCC4=CC(=O)C=C[C@]4(C)[C@@]3(F)[C@@H](O)C[C@]2(C)[C@@]1(OC(=O)C(Cl)Cl)C(=O)OCCl	Vasoconstriction activity	-
